This collection of values is drawn from patent US20260184782A1.

# Study target: T1, human TIGIT-Fc (human, UniProt Q495A1 22-141, limits assumed)
# T1 construct: not shown: Fc; not described
# T1 sequence (looked up): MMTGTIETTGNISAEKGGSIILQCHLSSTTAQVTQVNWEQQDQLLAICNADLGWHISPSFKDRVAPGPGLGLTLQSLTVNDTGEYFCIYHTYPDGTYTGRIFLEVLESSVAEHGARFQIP
# Test name: CD155 competition ELISA, single point; also: test concentration or dose not given here
# Method: TIGIT/CD155 inhibition of VHH-Fcs were assessed using an ELISA assay (Table 10B). Briefly, human TIGIT-Fc was coated on a plate & then incubated with VHH-Fcs and human CD155-biotin. Bound CD155-biotin was detected using a streptavidin-HRP conjugate visualized with TMB. Strong inhibitors from the single point screen were titrated to determine EC50 (Table 10C).
Could you label it Y if measured OD (450 nm) is 0.4 OD or higher, and N otherwise?

Textbook exercise: given the entry TIGIT-SC205 (Fc fusion, VHH-Fc) VHH: EVQLVESGGGLVQPGGSLRLSCAASGFTFDRSWMGWFRQAPGKEREFVAAIWRSGTLKAYADSVKGRFTISADNGKNTAYLQMNSLKPEDTAVYYCAEGGTTAWGWFVPWGQGTLVTVSS , state whether its OD (450 nm) is greater than or equal to 0.4 OD.
Y

Textbook exercise: given the entry TIGIT-SC81 (Fc fusion, VHH-Fc) VHH: EVQLVESGGGLVQPGGSLRLSCAASGRSFKDDAMGWFRQAPGKEREFVAAISWSGDSTHYADSVKGRFTISADNSKNTAYLQMNSLKPEDTAVYYCARWVWASGTYWIDYWGQGTLVTVSS , state whether its OD (450 nm) is greater than or equal to 0.4 OD.
Y

Textbook exercise: given the entry TIGIT-SC64 (Fc fusion, VHH-Fc) VHH: EVQLVESGGGLVQPGGSLRLSCAASGFAFSNFGMGWFRQAPGKERELVSAIGWSGASTYYADSVKGRFTISADNSKNTAYLQMNSLKPEDTAVYYCARRGRTIPFDYWGQGTLVTVSS , state whether its OD (450 nm) is greater than or equal to 0.4 OD.
N

Textbook exercise: given the entry TIGIT-SC47 (Fc fusion, VHH-Fc) VHH: EVQLVESGGGLVQPGGSLRLSCAASGRALNMYVMGWFRQAPGKERELVAAIDWSGGSALYADSVKGRFTISADNSKNTAYLQMNSLKPEDTAVYYCASGDGYSMDYFDPWGQGTLVTVSS , state whether its OD (450 nm) is greater than or equal to 0.4 OD.
Y

Textbook exercise: given the entry TIGIT-SC39 (Fc fusion, VHH-Fc) VHH: EVQLVESGGGLVQPGGSLRLSCAASGRTVSSHAMGWFRQAPGKEREFVAAITSSGSTYYADSVKGRFTISADNSKNTAYLQMNSLKPEDTAVYYCASSYSSSSGLGDIWGQGTLVTVSS , state whether its OD (450 nm) is greater than or equal to 0.4 OD.
Y

Textbook exercise: given the entry TIGIT-SC150 (Fc fusion, VHH-Fc) VHH: EVQLVESGGGLVQPGGSLRLSCAASGFTLENNMMGWFRQAPGKEREFVAAISRSGTLKAYADSVKGRFTISADNSKNTAYLQVNSLKPEDTAVYYCVRVRGYSGYDCDYWGQGTLVTVSS , state whether its OD (450 nm) is greater than or equal to 0.4 OD.
Y

Textbook exercise: given the entry TIGIT-SC38 (Fc fusion, VHH-Fc) VHH: EVQLVESGGGLVQPGGSLRLSCAASGFTFSEYPMGWFRQAPGKEREFVAVVNWNGDSTYYADSVKGRFTISADNSKNTAYLQMNSLKPEDTAVYYCARGSDWYRYWGQGTLVTVSS , state whether its OD (450 nm) is greater than or equal to 0.4 OD.
N

Textbook exercise: given the entry TIGIT-SC173 (Fc fusion, VHH-Fc) VHH: EVQLVESGGGLVQPGGSLRLSCAASGFTFSPSWMGWFRQAPGKEREWVASVLRGGYTWYADSVKGRFTISADNSKNTAYLQMNSLKPEDTAVYYCATERRLGVWGQGTLVTVSS , state whether its OD (450 nm) is greater than or equal to 0.4 OD.
Y
